# MEASUREMENT_DESCRIPTION: qHTS assay to identify small molecule antagonists of the estrogen related receptor signaling pathway with the pleiotropic PPARgamma coactivator (PGC) from Tox21 10K library - cell viability counter screen (AID 1224840); note: % is set by controls: 0 for no effect and ±100 for the full control effect; nearly all actives have a fitted effect of over 40% in size
# EXPERIMENTAL_PARAMETERS: PGC/ERR reporter cells viability, CellTiter-Fluor, 17.5 h; series mostly up to 92.4 µM
Inconclusive results are not listed. The source made the active and inactive calls. Calls come from the whole dose curve; as a rule, active = well fitted cell-killing curve with a large enough effect in the repeat runs (not every such curve was filed as active); inconclusive = weak or mixed curves, or effect the other way; inactive = no such curve, though single readings can be large or run the other way.
Pick one and only one: 1 for active, 0 for inactive

Each compound tested received a call. Report the one for `O=C(O)CCS` .
0

###

# MEASUREMENT_DESCRIPTION: qHTS assay to identify small molecule agonists of the retinoic acid receptor (RAR) signaling pathway (AID 1159553); for activation: % is set by controls: 0 for no effect and ±100 for the full control effect
# EXPERIMENTAL_PARAMETERS: C3RL4 RARE luciferase reporter, agonist, 6 h; series mostly up to 73.3 µM
Results filed as inconclusive are left out. Active and inactive are the calls of the source. The call rests on the fitted dose curve; in most records, active means well fitted activation curve with a large enough effect in the repeat runs; inconclusive means weak or mixed curves, or effect the other way; inactive means no such curve, though single readings can be large or run the other way.
Hello, when you answer, please use one of the following outcomes: active, inactive

Please let me know the test result on file for CC1CCC(C(C)CS)CC1S (stereo not drawn) .
inactive

# fetch the recorded call for CCCCCCC(O)CCCCCCCCCCC(=O)OC (stereo not drawn) here
inactive

GET /call?item= `CCCCOC(=O)CCCCC(=O)OCCCC` returns the recorded outcome of this test.
inactive

Entry `CC(C)N(C)C` : call = ?
inactive

Hi, do you know how CCOC(=O)C(C)O (stereo not drawn) came out in this test?
inactive

Short answer needed: outcome of this test for `CC(C)(C)S` ?
inactive

New cases:
Per the assay record, what outcome was assigned to `CCCCCCOC(=O)CCCCC` ?
inactive

Recorded test outcome, item `CSSc1ccoc1C`
active

Entry `CC(=O)c1ccc[nH]1` : call = ?
inactive

What did this assay record as the result for `CC(C)CC(O)CC(C)C` ?
inactive

What outcome does the record of this test show for `CC(=O)OCCC1CCCCC1` ?
inactive

###

# MEASUREMENT_DESCRIPTION: A CellTox Green Cytotoxicity Assay to monitor cytotoxicity in HepG2 cells - 40 hour (AID 1224879); note: nearly all actives have a fitted effect of over 40% in size
# EXPERIMENTAL_PARAMETERS: CellTox Green fluorescence; series mostly up to 76.8 µM
Results filed as inconclusive are left out. Active and inactive are the calls of the source. Calls come from the whole dose curve; as a rule, active = well fitted activation curve with a large enough effect in the repeat runs; inconclusive = weak or mixed curves; inactive = flat fitted curve, though single readings scatter.
Returns: one label drawn from active, inactive

Kindly provide the recorded test outcome for the following compound: `CC(C)OC(=O)c1ccccc1C(=O)OC(C)C`
inactive

Dear all, I need the recorded test outcome for `CCOCCC(=O)OCC` , thank you.
inactive

How did this test come out for CC(C)C1CCC(C(=O)N[C@H](Cc2ccccc2)C(=O)O)CC1 (some centres undefined) ?
inactive

Check the results log: what was the call for `O=C(O)CN1C(=O)c2cccc3cccc(c23)C1=O` ?
inactive

Short answer needed: outcome of this test for `CC[C@H]1OC(=O)[C@H](C)[C@@H](O[C@H]2C[C@@](C)(OC)[C@@H](O)[C@H](C)O2)[C@H](C)[C@@H](O[C@@H]2O[C@H](C)C[C@H](N(C)C)[C@H]2O)[C@](C)(O)C[C@@H](C)CN(C)[C@H](C)[C@@H](O)[C@]1(C)O` ?
inactive

Continuing:
Lab log entry: `O=[N+]([O-])C1(Br)COCOC1` — outcome as called in the assay?
active

Dear colleague, could you share the recorded outcome for `CC(C)(O)CCc1ccccc1` when you have a moment?
inactive

// return assay outcome for `CCCCCCCC/C=C\CCCCCCCC(=O)OCCO`
inactive

For `CC(=O)c1ccc[nH]1` , what call appears in the results of this test?
inactive

Which outcome was entered for the compound `C[C@H](CS)C(=O)N1CCC[C@H]1C(=O)O` in this test?
inactive

Just curious, what result did `COc1cc(OC)c2ccc(=O)oc2c1` get here?
inactive

Record lookup: outcome of this test for `CCN(CC)c1ccc(C(=C2C=CC(=[N+](CC)CC)C=C2)c2ccc(S(=O)(=O)O)cc2S(=O)(=O)[O-])cc1` ?
inactive

// outcome(item) with item = CCO[Si](C)(CCCOCC1CO1)OCC (centres undefined)
inactive

Field: outcome | Entry: `CCCCOCCOC(=O)c1cccnc1`
inactive

###

# MEASUREMENT_DESCRIPTION: qHTS assay to identify small molecule antagonists of the thyroid receptor (TR) signaling pathway (AID 743065); note: nearly all actives have a fitted effect of over 55% in size
# EXPERIMENTAL_PARAMETERS: GH3.TRE-Luc, T3-stimulated luciferase inhibition, 23.5 h; series mostly up to 70.3 µM
# From the text: U.S. Tox21 Program National Center for Advancing Translational Sciences [NCATS] NIH Chemical Genomics Center [NCGC] U.S. Environmental Protection Agency [EPA] National Institutes of Environmental Health Sciences [NIEHS] National Toxicology Program [NTP] U.S. Food and Drug Administration [FDA] Tox21 Assay Overview: Thyroid receptor (TR), a nuclear hormone receptor, plays an important role in development, proliferation, differentiation, metabolism, brain function, and cardiovascular system. […]
Records with an inconclusive call do not appear. The source made the active and inactive calls. Calls follow the shape of the dose curve; as a rule, active = well fitted inhibition curve with a large enough effect in the repeat runs; inconclusive = weak or mixed curves; inactive = no such curve, though single readings can be large or run the other way.
Use one of these outcomes when replying: active, inactive

Examples with answers:
Check the results log: what was the call for `CC(=O)NNC(C)=O` ?
inactive

Hey, what did the test say about `CCC(=O)OCc1ccc(OC)cc1` ?
inactive

// param item: `Nc1nc(-c2ccc([N+](=O)[O-])cc2)cs1` ; yields the recorded call
inactive

Further cases:
// outcome(item) with item = `CCC(CO)(CO)CO`
inactive

Just curious, what result did `O=C(CCS)OCC(COC(=O)CCS)(COC(=O)CCS)COC(=O)CCS` get here?
inactive

What is the recorded call for this compound in the test? c1ccc(CNc2ncnc3c2ncn3C2CCCCO2)cc1 (stereo not drawn)
inactive

Returns: the outcome recorded for `Cc1ccc2c(c1)CCCN2` in this assay.
inactive

Hello, I am checking results. What call was entered for `COc1cc(C(C)=O)ccc1OCCCN1CCC(c2noc3cc(F)ccc23)CC1` ?
active

GET /call?item= `CC(C)(O)CCc1ccccc1` returns the recorded outcome of this test.
inactive

Call for entry CNS(=O)(=O)c1cc(C(=O)N2CCC(CCN3C4CCC3CC(n3c(C)nc5ccccc53)C4)(c3cccc(F)c3)CC2)c(Cl)cc1F (stereo not drawn) :
active

###

# SYSTEM: Glucocorticoid receptor (Homo sapiens) (UniProt P04150)
# Sequence (P04150 whole entry, looked up): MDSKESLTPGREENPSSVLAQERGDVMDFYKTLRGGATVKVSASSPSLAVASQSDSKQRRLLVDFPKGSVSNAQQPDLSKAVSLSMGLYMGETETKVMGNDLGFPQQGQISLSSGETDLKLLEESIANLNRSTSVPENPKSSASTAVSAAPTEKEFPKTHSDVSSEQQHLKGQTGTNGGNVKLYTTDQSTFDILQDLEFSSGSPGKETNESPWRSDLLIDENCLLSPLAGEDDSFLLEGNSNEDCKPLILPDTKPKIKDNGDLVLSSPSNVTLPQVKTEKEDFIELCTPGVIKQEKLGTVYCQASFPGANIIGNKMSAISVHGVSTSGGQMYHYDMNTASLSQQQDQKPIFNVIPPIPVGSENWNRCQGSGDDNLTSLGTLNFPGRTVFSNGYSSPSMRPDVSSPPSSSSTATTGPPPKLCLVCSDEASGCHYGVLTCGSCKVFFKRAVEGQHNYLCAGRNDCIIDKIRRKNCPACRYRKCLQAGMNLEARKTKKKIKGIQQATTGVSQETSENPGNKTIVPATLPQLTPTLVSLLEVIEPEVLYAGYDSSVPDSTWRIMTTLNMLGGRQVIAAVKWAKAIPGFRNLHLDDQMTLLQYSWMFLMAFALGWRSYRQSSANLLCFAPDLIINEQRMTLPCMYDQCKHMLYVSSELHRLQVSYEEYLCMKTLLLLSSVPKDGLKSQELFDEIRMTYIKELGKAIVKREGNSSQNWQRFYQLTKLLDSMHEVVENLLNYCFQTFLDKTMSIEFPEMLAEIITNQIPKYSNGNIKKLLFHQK
# MEASUREMENT_DESCRIPTION: qHTS assay to identify small molecule agonists of the glucocorticoid receptor (GR) signaling pathway (AID 720691); for activation: % is set by controls: 0 for no effect and ±100 for the full control effect
# EXPERIMENTAL_PARAMETERS: GR-bla HeLa, beta-lactamase reporter ratio, 18 h; series mostly up to 62.4 µM
Active and inactive are the calls of the source. Calls come from the whole dose curve; as a rule, active = well fitted activation curve with a large enough effect in the signal ratio in the repeat runs (not every such curve was filed as active); inconclusive = weak or mixed curves, or effect the other way; inactive = no such curve, though single readings can be large or run the other way; the % refers to the signal ratio.
Answer with one of the outcomes Y for active, N for inactive

Tell me the recorded outcome of this test for C1=CCC2CC=CC2C1 (configuration not stated) .
N

Could you check what this test reported for `CC(C)c1ccc(C#N)cc1` ?
N

Record lookup: outcome of this test for COC(=O)CC(C(C)=O)C(=O)OC (configuration not stated) ?
N

Could you kindly confirm the outcome this assay logged for `Nc1ccc(S(=O)(=O)NCc2ccccc2)cc1` ?
N

Could you kindly confirm the outcome this assay logged for `Cc1ccccc1S(N)(=O)=O` ?
N

Test call for this compound, please: `O=P(O)(O)Oc1ccccc1`
N

What is the recorded call for this compound in the test? `CS(=O)(=O)c1ccc([C@@H](C[C@H]2CCC(=O)C2)C(=O)Nc2cnccn2)cc1Cl`
N

Called result for `CC(=O)OCC1=C(C(=O)O)N2C(=O)[C@@H](NC(=O)CSc3ccncc3)[C@H]2SC1`
N

What call does the record list for `C[C@H](CS)C(=O)N1CCC[C@H]1C(=O)O` ?
N

Please let me know the test result on file for `CCCCC[C@H](O)/C=C/[C@H]1[C@H](O)CC(=O)[C@@H]1C/C=C\CCCC(=O)O` .
N

How was `CCCCCCCC(=O)OCCCCCC` classified in this test?
N

Test call, this compound: `CC(=O)OCC(=O)[C@@]1(OC(C)=O)[C@@H](C)C[C@H]2[C@@H]3C[C@H](F)C4=CC(=O)C=C[C@]4(C)[C@@]3(F)[C@@H](O)C[C@@]21C`
Y

// param item: `Nc1nc2ccc(OC(F)(F)F)cc2s1` ; yields the recorded call
N

Any idea what this test logged for `COc1cc(S(=O)(=O)Nc2ccccc2)c(OC)cc1N` ?
N

Tell me the assay call for CC(C)C(O)C(C)(C)CO (configuration not stated) please.
N

Which outcome did this test record for the compound `CC(=O)C(=O)CC(C)C` ?
N

Name the outcome recorded for `N[C@@H](Cc1cc(I)c(O)c(I)c1)C(=O)O` in the assay.
N

Returns: the outcome recorded for COC(CC(C)CCCC(C)(C)O)OC (configuration not stated) in this assay.
N

Hi team, can someone confirm the assay call for `O=C1NC(=O)c2cccc3cccc1c23` ?
N

Entry `O=C(O)c1cccc(C[C@@H]2COc3ccc(OCc4nc5cc(F)ccc5s4)cc3[C@@H]2O)c1` : call = ?
N

Kindly provide the recorded test outcome for the following compound: `CCCCCCCCCCCCCCCC(=O)OCC`
N

# lookup: test call for CC1CCC(C(C)CS)CC1S (configuration not stated)
N

In this assay, the call recorded for `CC(=O)C(C)=O` was what?
N

Record request — test call for `CC(C)N(C)C`
N

Recorded values, source PubChem BioAssay (Tox21).
